- ASSAY PROTOCOL: yeast display, Sf9 membrane polyspecificity reagent, FACS + sequencing; frameworks hold sequencing errors
REPORTED METRIC: polyreactivity (PSR sort gate)

# input May I ask what polyreactivity (PSR sort gate) has been recorded for `QDQLVESGGGLVQAGGSLSLSCAAYGRIFSYNAMGWYRQAPGKERELVAAISYSGGRTYYADSVKGRFTISRDTAKNTVYLQMNSLKPEDTAVYYCAAEAHLAGYYRYYGGYGYDYWGQGTQVTVSS` ?
# output high polyreactivity

# input One more sequence: `QVQLVDSGGGLVQAGGSLRLSCAASGYTILSYVMGWNRQAPGKERELVAAIRRSGGSTYYADSVKGRFTISRDNAKNTVYLQMNSLKPEDTAVYYCNAPHHRYDWGQGTQVTVSS`
# output high polyreactivity

# input One more sequence: `QVQLVESGGGLVQAGGSLRLSCAASGRIFASYAMGWYRQAPGKERELVAAISLSGGSTYYADSVKGRFTISRDNAKNTVYLQMNSLKPEDTAVYYCNARAIGWRIYDYWGQGTQVTVSS`
# output high polyreactivity

----------
- ASSAY PROTOCOL: yeast display, Sf9 membrane polyspecificity reagent, FACS + sequencing; frameworks hold sequencing errors
REPORTED METRIC: polyreactivity (PSR sort gate)

# input May I ask what polyreactivity (PSR sort gate) has been recorded for `QVQLVESGGGLVQAGGSLRLSCAASGLILSGYTMGWYRPAPGKERELVAAISRSGGRTYYADSVKGRFTISRDNAKNTVYLQMNSLKPEDTAVYYCAAAKRTWRSDYWGQGTQVTVSS` ?
# output high polyreactivity

# input One more sequence: `QVQLVEAGGGLVQAGGSLRLSCAASGSTFRRYAMGWYRQAPGKERVLVAAITTRGGSTYYADSVKGRFTISRDNAKNTVYLQMNSLKPEDTAVYYCARDYSTYLRTAGDYWGQGTQVTVSS`
# output low polyreactivity

# input One more sequence: `QVQLEESGGGLVQAGGSLRLSCAASGRIFYRNAMGWYRQAPGKERELVAAISSSAGSTYYADSVKGRFTISRDHAKNTVYLQMNSLKPEDTAVYYCAAGSGTFVTRYRYDYWGQGTQVTVSS`
# output high polyreactivity

# input One more sequence: `QVQLVESGGGLVQAGGTLRLSCAASGRTLHGYAMGWYRQAPGKERELVASITWSGASTYYADSVKGRFTISRDNAKNTVYLQMNSLKPEDTAVYYCAADRSRYVRRRYGYWGQGTQVTVSS`
# output high polyreactivity

# input One more sequence: `QVQLVETGRGLVQAGGSLRISCAPCGFTFWRNAMGGYRQAPGKERELVAAINWSGGSPYYADSVKGRFTISRDNAMNTVYLQINSRKADDTAVYYCNRRGQYTFWPIHEYWGQGTQVTVSS`
# output high polyreactivity

# input One more sequence: `QVQLVESGGGLVQAGGSLRLICAASGRIFRPYAMGWYRQAPGKEREFVATIRFTTGRTYYADSVKGRFTISRDNAKNTVYLQMNSLKPEDTAVYYCAADFAFVNYAKISYTTHDYWGQGTQVTVSS`
# output high polyreactivity

# input One more sequence: `QVQLVESGGGLVQAGGSLRLSCAASGSTFFHYVMGWYRQAPGKERELVAAIRWSGGRTRYADSVKGRFTISRDNAKNTVYLQMNSLKPEDTAVYYCAAYRLSKPFYKYDYWGQGTQVTVSS`
# output high polyreactivity

# input One more sequence: `QVQLVESGGGLVQAGGSLRLSCAASGSIFSGYTMGWYRQAPGKERELVAGISYRGGSTYYADSVKGRFTISRDNAKNTVYLQMNSLKPEDTAVYYCAARHSTLRGYWGQGTQVTVSS`
# output high polyreactivity

# input One more sequence: `QVQLVESGGGLVQAGGSLRLSCSASGSTFHYNAMGWYRQAQGKERELVAYISWRGASKYDADSVKGRFTISRDNAKNTVYLQMSSMKTEDTAVFFFNAVLTSYWYNSYKSRGDYWGQGTLVTVSS`
# output high polyreactivity

# input One more sequence: `QVQLVESGGGLVQAGGSLRLSCAASGSTFGYNAMGWYRQAPGKERELVAAITWSGGSTYYADSVKGRFTISRDNAKNTFYFQMNSLKPEDTAVYYCAAEWGVGKSWLEYLLFYYWGQGTQVTVSS`
# output low polyreactivity

Next:
# input May I ask what polyreactivity (PSR sort gate) has been recorded for `QVQLVVSGGGLVQAGGSLRLSCAASGSMLYKYAMGWYRQPPGKEREFVAAISSSGGITYYADSVKGRFTISRDNAKNTVYLQMNSLKPEDTAVYYCAARTRSQFGHGYWGQGTQVTVSS` ?
# output high polyreactivity

# input One more sequence: `QVQLVESGGGLVQAGGSLRLSCAASGRIFNIYAMGWYRQAPGKERELVAAISVSGTRTYYADSVKGRFTISRDNAKNTVYLQMNSLKPEDTAVYYCAADSYGGVWTEHMYYWGQGTQVTVSS`
# output low polyreactivity

# input One more sequence: `QVQLVESGGGLVQAGGSLRLSCAASGLTFGLYAMGWYRQAPGKERELVAVITAGGRTYYADSVKGRFTISRDNAKNTVYLQMNSLKPEDTAVYYCATVNYGSGRGYRRVYTAYYYWGQGTQVTVSS`
# output low polyreactivity

# input One more sequence: `QVQLVESGGGLVQAGGSLRLSCAASGRIFSDYAMGRYRQAPGKDRELVATITTGDSTNYADSVKGRFTISRDNAKNTVYLQMNSLKPEDTAVYYCNADRFADYDYWGQGTQVTVSS`
# output low polyreactivity

# input One more sequence: `QVQLVESGGGLVQAGGSFRLSCAASGSIFVVYAMGWYRQAPGKERELVAAITSGGSTYYADSVKGRFTISRDNAKNTVYLQMNSLKPEDTAVYYCNAKRTGPWFLHVPVYYWGQGTQVTVSS`
# output low polyreactivity

# input One more sequence: `QVQLVESGGGLVQAGGSLRLSCAASGRIFRTYAMGWYRQAPGKERELVAAIRSGGSTKYADSVKGRFTISRDNAKNTVYLQMNSLKPEDTAVYYCAAAVLGRYSAGDGYWGQGTQVTVSS`
# output low polyreactivity

# input One more sequence: `QVQLVESGGGLVQAGGSLRLSCAASGSTFASYAMGWYRQAPGKERELVAAIRWRGGTTYYADSVKGRFTISRDNAKNTVYLQMNSLKPEDTAVYYCNADRYYLYYYWGQGTQVTVSS`
# output low polyreactivity

# input One more sequence: `QVQLVESGGGLVQAGGSLRLSCAATGRIFVNAMGWYRQAPGKERELVAAINTRGGSTYYADSVKGRFTISRDNAKNSVYLQMNSLKPEDTAVYYCAARFYTSSRYNYWGQGTQVTVSS`
# output high polyreactivity

# input One more sequence: `QVQLQESGGGLMQAGGSLRLSCAASGNIFLGHTKGWYRQAPGNEREFVAGIARGGNPYNADSVKGRFTISRNNAKNTVYLQKNSLKAEDTAVHYCGVQRSHASDYNYWGQGTQVTVSS`
# output low polyreactivity

# input One more sequence: `QVQLQERGGGLVQAGGSLRLSCAASGIIYADGFMGLYRQAPGKEREFVATITGGGTSNYADSVKGRFTISRDNAKNTVYLQMNSLKPEDTAVYYCAVYFAWTIGFTYLGQGTQVTVSS`
# output high polyreactivity

# input One more sequence: `QVQIVESGGGLVQAGGSLRLSCAASGFIFWFNAMGWYRQAPGKERELVATISWSDTSTYYAVSVKGRFTISRDNAKNTVYLQMNSLKPEDTAVYYFATDASETSLPEYYWGQGTQETVSS`
# output low polyreactivity

----------
- ASSAY PROTOCOL: yeast display, Sf9 membrane polyspecificity reagent, FACS + sequencing; frameworks hold sequencing errors
REPORTED METRIC: polyreactivity (PSR sort gate)

# count of solved cases: 5
# input May I ask what polyreactivity (PSR sort gate) has been recorded for `QVQLVESGGGLVQAGGSLRLSCAASGSTFYGYAMGWYRQAPGKERELVAAITYSGGSTYYADSVKGRFTISRDNAKNTVYLQMNSLKPEDTAVYYCAATWLWFRRYRYDYWGQGTQVTVSS` ?
# output high polyreactivity

# input One more sequence: `QVQLVESGGGLVQAGGSLRLSCAASGFIFSSYAMGWYRQAPGKERELVAAITRNGGSTYYADSVKGRFTISRDNAKNTVYLQMNSLKPEDTAVYYCAAPRWRGVGRFDYWGQGTQVTVSS`
# output high polyreactivity

# input One more sequence: `QVQLEESGGGLVQAGGSLRLSCAASGFIFAQYAMGWYRKAPRKDRELVAAISWSGGSTYYADSVKGRFTISRDNAKNTVYLQMNSLKPEDTAVYYCAALFRNKSRYRYGYWGQGTQVTVSS`
# output high polyreactivity

# input One more sequence: `QVQLVESGGGLVQAGGRLRLSCAASGSIFRVYAMGWYRQAPGKERELVARISRGGRTNYADSVKGRFTISRDNAKNTVYLQMNSLKPEDTAVYYCAADVVSLESYSYQSLGYDYWGQGTQVTVSS`
# output high polyreactivity

# input One more sequence: `QVQLVESGGGLVQAGGSLRLSCAASGSIFAPYVMGWYRQAPGKERELVAAITESGGRTYYADSVKGRFTISRDNAKNTVYLQMNSLKPEDTAVYYCAARTYDRNRQLRRQWYDYWGQGTQVTVSS`
# output high polyreactivity

Then there is this sequence:
# input May I ask what polyreactivity (PSR sort gate) has been recorded for `QVQLVESGGGLVQAGGSLRLSCAASGFIFPRYAMGWSRQRPGKESELVAAISRSGGITRYADSVKGRFTISRDNAKNTVYLQRNSLKPEDTAVYYCAAYIQGWVTAEWVRDDYWGKGTQVTVSS` ?
# output high polyreactivity
